# assay_name: Oral bioavailability in Wistar Han rat at 10 mg/kg
# Assay type: ADME, organism-based
# conditions_used: in vivo
measured_parameter: bioavailability (%)
Express your answer in %, writing the number without its unit.

response.value for N#Cc1ccc2ccc(=O)n(CCN3CCC(NCc4cc5c(cn4)OCCO5)CC3)c2c1 (field: bioavailability) = 31

Item: N#Cc1ccc2ccc(=O)n(CCN3CC[C@H](NCc4cc5c(cn4)OCCO5)[C@H](F)C3)c2c1 | bioavailability: 18

====

# assay_name: Dissociation constant, pKa of the compound by pH metric assay
# Format: physicochemical
measured_parameter: pKa

Short answer for COc1ccc2ncc(=O)n(CCN3CCC(NCc4ccc5c(n4)NC(=O)CO5)CC3)c2c1 : pKa was 8.42

So for COc1ccc2ncc(=O)n(CCN3CC[C@@H](NCc4ccc5c(n4)NC(=O)CO5)[C@@H](OC)C3)c2c1 , the logged pKa turned out to be 8.17

Value of pKa reported for the compound COc1ccc2ncc(=O)n(CCN3CC[C@@H](NCc4cc5c(cn4)OCCO5)[C@@H](OC)C3)c2c1 is 8.01

According to the records, this compound CO[C@H]1CN(CCn2c(=O)ccc3ccc(C#N)cc32)CC[C@H]1NCc1cc2c(cn1)OCCO2 displays pKa of 7.99

Documented pKa of COc1ccc2ncc(=O)n(CCN3CC[C@@H](NCc4cc5c(cn4)OCCO5)[C@H](O)C3)c2c1 (single isomer, unassigned; enantiomer B) : 7.4

Lab note: CO[C@H]1CN(CCn2c(=O)ccc3ccc(C#N)cc32)CC[C@@H]1NCc1cc2c(cn1)OCCO2 (single isomer, unassigned; enantiomer 1) gave pKa of 7.25

The recorded pKa for entry COc1ccc2ncc(=O)n(CCN3CC[C@H](NCc4cc5c(cn4)OCCO5)[C@@H](F)C3)c2c1 (single isomer, unassigned; enantiomer B) equals 6.46

// pKa value for N#Cc1ccc2ccc(=O)n(CCN3CCC(NCc4cc5c(cn4)OCCO5)CC3)c2c1 : 8.27

N#Cc1ccc2ccc(=O)n(CCN3CC[C@H](NCc4cc5c(cn4)OCCO5)[C@H](F)C3)c2c1 yielded pKa of 7.03

Reported pKa of COc1ccc2ncc(=O)n(CCN3CC[C@H](NCc4cc5c(cn4)OCCO5)[C@@H](OC)C3)c2c1 (single isomer, unassigned; enantiomer 1) : 7

# compound N#Cc1ccc2ccc(=O)n(CCN3CC[C@H](NCc4cc5c(cn4)OCCO5)[C@H](O)C3)c2c1 ; its pKa = 8

====

Field: hepatocyte CLint. Provide a value for each of the compounds that follow.
# assay_name: Intrinsic clearance in Wistar Han rat hepatocytes measured per 10^6 cells
# Format: ADME, cell-based, Hepatocyte
# conditions_used: read-out: CLH
Please respond with the number in µL/min/1e6 cells and leave the unit unwritten.

Query N#Cc1ccc2ccc(=O)n(CCN3CC[C@@H](NCc4ccc5c(n4)NC(=O)CO5)[C@@H](F)C3)c2c1 yields hepatocyte CLint of 14

Form: compound = COc1ccc2ncc(=O)n(CCN3CCC(NCc4ccc5c(n4)NC(=O)CO5)CC3)c2c1 ; hepatocyte CLint = 26

hepatocyte CLint reported for this compound N#Cc1ccc2ccc(=O)n(CCN3CC[C@H](NCc4cc5c(cn4)OCCO5)[C@H](F)C3)c2c1 : 13

# hepatocyte CLint of N#Cc1ccc2ccc(=O)n(CCN3CCC(NCc4cc5c(cn4)OCCO5)CC3)c2c1 = 42
